Recorded values, source patent US20180030151A1.

Entries and their A405, TF/FVIIa/FX complex assay, Ab 50 nM values follow.
Measurement target: recombinant human TFPI (tissue factor pathway inhibitor) (human, UniProt P10646 29-304)
Test protocol: cell-based or functional assay
Value kind: A405, TF/FVIIa/FX complex assay, Ab 50 nM

| Binder | Test result |
| --- | --- |
| clone 1023 (antibody, V domains shown, scFv on yeast at selection; human IgG4/kappa IgG as purified) VH: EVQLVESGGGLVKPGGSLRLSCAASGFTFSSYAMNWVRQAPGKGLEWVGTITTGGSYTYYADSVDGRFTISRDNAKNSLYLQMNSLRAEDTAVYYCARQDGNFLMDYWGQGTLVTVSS VL: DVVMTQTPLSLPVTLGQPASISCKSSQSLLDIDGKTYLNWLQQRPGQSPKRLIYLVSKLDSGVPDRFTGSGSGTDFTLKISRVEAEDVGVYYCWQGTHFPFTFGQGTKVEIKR | 0.938 |
| clone 3241 (antibody, V domains shown, scFv on yeast at selection; human IgG4/kappa IgG as purified; also called No. 3241 antibody) VH: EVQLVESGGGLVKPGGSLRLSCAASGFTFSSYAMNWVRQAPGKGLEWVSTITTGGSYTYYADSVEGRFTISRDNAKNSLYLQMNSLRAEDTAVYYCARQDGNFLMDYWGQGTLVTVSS VL: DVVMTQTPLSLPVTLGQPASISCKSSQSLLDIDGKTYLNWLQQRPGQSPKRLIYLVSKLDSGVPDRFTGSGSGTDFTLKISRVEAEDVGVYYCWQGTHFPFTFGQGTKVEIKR | 0.935 |
| clone 3203 (antibody, V domains shown) VH: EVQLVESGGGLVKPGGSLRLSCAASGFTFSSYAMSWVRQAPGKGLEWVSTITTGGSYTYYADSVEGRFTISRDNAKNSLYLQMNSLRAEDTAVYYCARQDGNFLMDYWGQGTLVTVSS VL: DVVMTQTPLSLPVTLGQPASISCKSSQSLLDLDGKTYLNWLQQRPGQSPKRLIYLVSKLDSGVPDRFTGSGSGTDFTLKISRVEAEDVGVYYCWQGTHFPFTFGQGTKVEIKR | 0.934 |
